Property: RAT IV T1/2; scope: individual compounds
test: in vivo; details: rat, in vivo, iv
Entry rule: numbers only, all in h.

Worked examples, 2 compounds total:
compound=COC(=O)N[C@H](C(=O)N[C@@H](Cc1ccc(C#Cc2ccc(N3CC4CCC(C3)N4C3COC3)nc2)cc1)[C@@H](O)CN(Cc1ccc(-c2ccccn2)cc1)NC(=O)[C@@H](NC(=O)OC)C(C)(C)C(F)(F)F)C(C)(C)C(F)(F)F attribute_measured="RAT IV T1/2" measured_number=8.77
compound=COC(=O)N[C@H](C(=O)N[C@@H](Cc1ccc(C#Cc2ccc(N3CC4CCC(C3)N4C3COC3)nc2)cc1)[C@@H](O)CN(Cc1c(F)cc(-c2ncccn2)cc1F)NC(=O)[C@@H](NC(=O)OC)C(C)(C)C(F)(F)F)C(C)(C)C(F)(F)F attribute_measured="RAT IV T1/2" measured_number=10

Record summary for COC(=O)N[C@H](C(=O)N[C@@H](Cc1ccccc1)[C@@H](O)CN(Cc1ccc(-c2ccccn2)cc1)NC(=O)[C@@H](NC(=O)OC)C(C)(C)C)C(C)(C)C [atazanavir, reference compound] : reported RAT IV T1/2 = 0.37

Record summary for COC(=O)N[C@H](C(=O)NN(Cc1c(F)cc(-c2ccn(C(F)F)n2)cc1F)C[C@H](O)[C@H](Cc1ccc(C#Cc2ccc(N3CC4CCC(C3)N4C3COC3)nc2)cc1)NC(=O)[C@@H](NC(=O)OC)C(C)(C)C(F)(F)F)C(C)(C)C : reported RAT IV T1/2 = 9.43
